Tested on: DMS 273 small cell lung
ASSAY_PROCEDURE: NCI tumour cell line growth inhibition, 48 h
Reported TGI values for the following compounds.
I only need the number, in µM, no unit after it.

Cc1cc(O)c2c(c1)C[C@@H](O)C1=C2C(=O)c2c(O)ccc(OC3CC(O)C(OC4CC(OC5CCC(OC6CC(O)C(OC7CC(OC8CCC(O)C(C)O8)C(O)C(C)O7)C(C)O6)C(C)O5)C(O)C(C)O4)C(C)O3)c2C1=O (stereo not given in full) ... 0.0684

Which TGI reading was recorded for the compound `CCCCN(CCCC)C(=Nc1ccccc1)N(CCCC)CCCC` ?
17.1

---

Test system: SK-MEL-2 melanoma
ASSAY_PROCEDURE: NCI tumour cell line growth inhibition, 48 h
MEASUREMENT_TYPE: GI50

COc1ccc(CN2CCc3c(Cl)nc(N)nc3C2=O)c(OC)c1 ... 16600 nM

Any idea what GI50 came out for `CCN1CCN(C(=O)[C@]23CC[C@@H](C)[C@H](C)[C@@H]2C2=CC[C@@H]4[C@@]5(C)C/C(=C/c6cccnc6)C(=O)C(C)(C)[C@@H]5CC[C@@]4(C)[C@]2(C)CC3)CC1` on SK-MEL-2 melanoma?
2120 nM

Any idea what GI50 came out for `CCN1CCC(C(=O)Nc2n[nH]c3nnc(-c4cccc(F)c4F)cc23)CC1` on SK-MEL-2 melanoma?
4840 nM

Any idea what GI50 came out for `C=C1C(=O)O[C@@H]2[C@@H]3O[C@@](C)(CC/C=C(\C)CCC[C@@H]2C)[C@H](O)C[C@@H]13` on SK-MEL-2 melanoma?
2410 nM

Any idea what GI50 came out for `CC(C)(O)Cn1c(=O)c(Oc2ccc(F)cc2F)cc2cnc(NC3CCOCC3)nc21` on SK-MEL-2 melanoma?
> 25000 nM

Any idea what GI50 came out for `COC12C=C/C(=C(/C(=O)OCc3ccncn3)C(=O)CCCCCCCCC3(OC)C=C/C(=C(/C(=O)OCc4ccncn4)C(=O)CCCCCCCC1)O3)O2` on SK-MEL-2 melanoma?
428 nM

Any idea what GI50 came out for COc1cc([C@@H]2c3cc4c(cc3[C@H](OC3OC5COC(c6ccccc6)OC5C(O)C3O)[C@H]3COC(=O)[C@H]23)OCO4)cc(OC)c1OC (stereo partly drawn) on SK-MEL-2 melanoma?
978 nM

Any idea what GI50 came out for `O=c1ccc2nc(-c3ccccc3)nn(-c3ccccc3)c-2c1` on SK-MEL-2 melanoma?
2280 nM

---

Test system: MOLT-4 leukemia
ASSAY_PROCEDURE: NCI tumour cell line growth inhibition, 48 h; in the data active means GI50 below about 0.43 µM; inactive means the rest
// one of yes (1) (active), no (0) (inactive), no free text

Solved cases (2 shown):
N#Cc1c(N)nn(C(=O)c2ccc(NC(=O)c3ccccn3)cc2)c1-c1ccc(Cl)cc1 ... no (0)
O=c1ccc2nc(-c3ccccc3)nn(-c3ccccc3)c-2c1 ... no (0)

Now for a further compound.
Kindly provide the recorded test outcome for the following compound: `O=C(CCCCCCc1nc2ccc(Br)cc2[nH]1)NO`
yes (1)

---

Test system: SK-OV-3 ovarian
ASSAY_PROCEDURE: NCI tumour cell line growth inhibition, 48 h
MEASUREMENT_TYPE: TGI

Here is how some molecules turned out for TGI.
CC1(C)O[C@H](C(=O)O)[C@@H](C(=O)O)O1 ... > 100 µM
O=C1C=Cc2c(Cl)sc(Cl)c21 ... 28.5 µM
Cc1c(-c2ccccc2)c(C#N)c2nnn(-c3ccccc3)c(=O)n12 ... > 100 µM
CC(=O)N1N=C(c2c(O)ccc3ccccc23)CC1C(=O)c1ccco1 (stereo unspecified) ... > 100 µM
COCCNC(=O)C1C(=O)N(CCOC)C(=O)/C1=N/N (stereo unspecified) ... > 100 µM
CCOC(=O)c1cnc2ccc(Cl)cc2c1NCCCN(C)C ... > 100 µM
CC1(CCCC2(C)CCNC2=O)OCCO1 (stereo unspecified) ... > 10 µM
COc1cc[c]([Hg][Cl])cc1 ... 27.3 µM
Cc1cc(S(=O)(=O)Nc2nc3ccsc3c(=O)n2N)c(S)cc1Cl ... > 100 µM
Cc1ccccc1N=C(N)NC#N ... > 100 µM

// next entry
Which TGI reading was recorded for the molecule O=C(CC(O)(c1ccccc1)c1ccc(Cl)cc1)NC(=O)c1ccccc1O (stereo unspecified) ?
55.4 µM
